Reported AntiCD3/CD28 (CD4 T cell proliferation) repeat 2 values for a set of binders
target: chimeric BTLA of humanised-BTLA mice (human extracellular region, murine transmembrane and signaling … (human; mouse, UniProt Q7TSA3 184-306, limits assumed); assay: cell-based or functional assay; further: test concentration or dose not given here
Sequence (Q7TSA3 other isoform, or with tags, fused parts or gaps mutant limits assumed): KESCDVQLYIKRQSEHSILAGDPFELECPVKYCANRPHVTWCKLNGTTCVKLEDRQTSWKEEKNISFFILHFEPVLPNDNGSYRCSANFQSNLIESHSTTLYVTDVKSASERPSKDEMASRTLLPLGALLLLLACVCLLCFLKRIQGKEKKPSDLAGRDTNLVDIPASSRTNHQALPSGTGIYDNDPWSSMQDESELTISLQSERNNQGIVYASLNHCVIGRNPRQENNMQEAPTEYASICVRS
Give the number; % inhibition is assumed, so skip it.

831 (antibody, IgG1, V domains shown) VH: DVQLQESGPDLVKPSQSLSVTCTVTGYSITSGYSWHWIRQFPGNKLEWMGYIHYSGSTNYNPSLKSRISITRDTSKNQFFLQLSSVTTEDTATYYCASGPHRYDGVWFAYWGQGTLVTVSS VL: EIVLTQSPTTMAASPGEKITITCSASSSISSNYLHWYQQKPGFSPKLLIYRTSNLASGVPARFSGSGSGTSYSLTIGTMEAEDVATYYCQQGTNIPLTFGAGTKLEIK    8

With those in mind, consider the next binder.
Query: // query AntiCD3/CD28 (CD4 T cell proliferation) repeat 2 value for entry 14D4 (antibody, IgG1, V domains shown, mIgG1) VH: QVQLQQPGAELVKPRASVKLSCKASGYTFTSYWMHWVKQRPGQGLEWIGMIHPNNGIPNYNEKFKSKATLTVDKSSTTAYMQLSSLTSEDSAVYHCAREGYYGSEGYFDVWGTGTTVTVSS VL: QIVLTQSPAIMSASPGEKVTMTCSASSSISYIHWYQQKPGTSPKRWIYDTSKLASGVPARFSGSGSGTSYSLTISSMEAEDAATYYCHQRSTYPYTFGGGTKLEIK
Reply: 29
